Literature pIC50 values, system: Isocitrate lyase (Candida albicans).
One number for each entry, as −log10 of the molar value.

compound: O=C(c1cc(O)c(O)c(Br)c1)c1cc(O)c(O)c(Br)c1
measurement-target: Isocitrate lyase (Candida albicans)
experimental-result: 5.05
//
compound: CC1=CC[C@H]2C(C)(C)CCC[C@]2(C)[C@H]1C/C=C(\C)CCC/C(C)=C/Cc1cc(O)ccc1O
measurement-target: Isocitrate lyase (Candida albicans)
experimental-result: 4.11
//
compound: O=C(CO)c1c[nH]c2ccc(O)cc12
measurement-target: Isocitrate lyase (Candida albicans)
experimental-result: 3.50

Below are 4 compounds. Give each one its pIC50.
1. CC(C)=CC(O)C(=O)/C(C)=C/CC/C(C)=C/CCC(C)(O)CCc1cc(O)cc(C)c1O (stereo not drawn)
2. CC(C)=C[C@@H]1C(=O)C(C)=C[C@H]1C/C(C)=C/CC[C@]1(C)CCc2cc(O)cc(C)c2O1
3. CN(C)CCc1cn(C(c2ccc(O)c(O)c2)C2Oc3ccc(/C=C\OS(=O)(=O)[O-])cc3O2)cn1.[Na+] (stereo not drawn)
4. CN(C)CCc1cn(C(c2ccc(O)c(O)c2)C2Oc3ccc(/C=C\OS(=O)(=O)[O-])cc3O2)cn1.Cl.[Na+] (stereo not drawn)

Result:
3.95
3.83
4.04
3.79
